# System Name: HLA-A*0301 (Human)
# Details: remark: other sources report otherwise
Readings of binding affinity ratio (IC50 of standard peptide/IC50 of test peptide) for the listed binders
I only need the number, thanks.

RTEEENLRKK; 3.3
LGFLHSGTAK [p53 peptide … (position 111)]; 0.0001
RTEEENLRK; 0.0015

Lookup: Can you look up the measured binding affinity ratio (IC50 of standard peptide/IC50 of test peptide) of KGQSTSRHK [p53 peptide … (position 373)] for me?
Found: 0.0014

Lookup: Can you look up the measured binding affinity ratio (IC50 of standard peptide/IC50 of test peptide) of GFLHSGTAK [p53 peptide … (position 112)] for me?
Found: 0.0014

Lookup: Can you look up the measured binding affinity ratio (IC50 of standard peptide/IC50 of test peptide) of RVRAMAIYK [p53 peptide … (position 156)] for me?
Found: 1.5
